- Tested target: T1, recombinant human TL1A (human, UniProt O95150 71-251)
- T1 construct: homotrimer; biotinylated for SPR capture; the ELISA paragraphs say only 'recombinant TL1A'; also called TNFSF15
- T1 chain: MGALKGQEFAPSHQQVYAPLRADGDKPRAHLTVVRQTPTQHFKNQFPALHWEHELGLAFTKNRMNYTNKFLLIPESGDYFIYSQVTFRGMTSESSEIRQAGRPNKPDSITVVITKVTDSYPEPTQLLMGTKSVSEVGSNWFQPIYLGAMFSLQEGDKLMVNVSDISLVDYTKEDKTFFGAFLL
- Assay summary: competition ELISA vs bio-TL1A-0002
# Bioactivity relative to TL1A-0002 listing for each entry below
Readout label: Bioactivity relative to TL1A-0002

1. TL1A-0061 (antibody, IgG1, V domains shown, IgG1/kappa variant of TL1A-0002) VH: QVQLVQSGAEVKKPGASVKVSCKASGFDFTYYGISWVRQAPGQGLEWMGWISTYNGNTHYARMLQGRVTMTTDTSTRTAYMELRSLRSDDTAVYYCARENYYGSGAYRGGMDVWGQGTTVTVSS VL: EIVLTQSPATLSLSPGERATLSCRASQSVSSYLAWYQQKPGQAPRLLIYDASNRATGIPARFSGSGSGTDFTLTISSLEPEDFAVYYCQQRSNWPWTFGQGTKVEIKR    1 fold
2. TL1A-0084 (antibody, IgG1, V domains shown, IgG1/kappa variant of TL1A-0002) VH: QVQLVQSGAEVKKPGASVKVSCKASGYDFTYYGISWVRQAPGQGLEWMGWASTYNGNTHYARMLQGRVTMTTDTSTRTAYMELRSLRSDDTAVYYCARENYYGSGAYRGGMDVWGQGTTVTVSS VL: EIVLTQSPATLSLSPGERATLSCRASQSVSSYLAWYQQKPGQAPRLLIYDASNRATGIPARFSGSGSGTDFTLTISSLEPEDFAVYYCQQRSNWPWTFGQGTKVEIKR    1 fold
3. TL1A-0012 (antibody, IgG1, V domains shown, IgG1/kappa variant of TL1A-0002) VH: QVQLVQSGAEVKKPGASVKVSCKASGYDFTYYGISWVRQAPGQGLEWMGWISTYNGNTHYADSLQGRVTMTTDTSTRTAYMELRSLRSDDTAVYYCARENYYGSGAYRGGMDVWGQGTTVTVSS VL: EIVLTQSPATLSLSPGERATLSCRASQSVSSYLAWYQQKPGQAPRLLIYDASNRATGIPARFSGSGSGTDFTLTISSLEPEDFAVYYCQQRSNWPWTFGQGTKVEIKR    1.1 fold
4. TL1A-0024 (antibody, IgG1, V domains shown, IgG1/kappa variant of TL1A-0002) VH: QVQLVQSGAEVKKPGASVKVSCKASGYDFTYYGISWVRQAPGQGLEWMGWISTYNGNEHYAPSLQGRVTMTTDTSTRTAYMELRSLRSDDTAVYYCARENYYGSGAYRGGMDVWGQGTTVTVSS VL: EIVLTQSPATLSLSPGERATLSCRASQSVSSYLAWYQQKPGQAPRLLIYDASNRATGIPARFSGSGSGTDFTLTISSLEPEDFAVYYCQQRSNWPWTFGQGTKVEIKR    1.2 fold
5. TL1A-0093 (antibody, IgG1, V domains shown, IgG1/kappa variant of TL1A-0002) VH: QVQLVQSGAEVKKPGASVKVSCKASGYDFTYYGISWVRQAPGQGLEWMGWISAYNANTHYAPSLQGRVTMTTDTSTRTAYMELRSLRSDDTAVYYCARENYYGSGAYRGGMDVWGQGTTVTVSS VL: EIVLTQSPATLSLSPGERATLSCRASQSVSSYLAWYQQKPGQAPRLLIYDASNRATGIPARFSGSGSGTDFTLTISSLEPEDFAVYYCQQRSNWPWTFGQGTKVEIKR    1.3 fold
